Organism: Rattus norvegicus
Assay: Open TG-GATES - Regimen: Single
Assay type: toxicity, organism-based, Sprague-Dawley
Design: regimen Single, gender Male, age 6 weeks
Settings: in vivo, po, 300 mg/kg, 3 h, tissue Plasma, route gavage, dose level Middle
# Lookup of reported TC keyed by entry
metric-name: TC (mg/dL)

>>> observed_result("Cc1nnc2n1-c1ccc(Cl)cc1C(c1ccccc1Cl)=NC2")
90.4
>>> observed_result("O=C(OC[C@H]1O[C@@H](OC(=O)c2cc(O)c(O)c(OC(=O)c3cc(O)c(O)c(O)c3)c2)[C@H](OC(=O)c2cc(O)c(O)c(OC(=O)c3cc(O)c(O)c(O)c3)c2)[C@@H](OC(=O)c2cc(O)c(O)c(OC(=O)c3cc(O)c(O)c(O)c3)c2)[C@@H]1OC(=O)c1cc(O)c(O)c(OC(=O)c2cc(O)c(O)c(O)c2)c1)c1cc(O)c(O)c(OC(=O)c2cc(O)c(O)c(O)c2)c1")
81.6
>>> observed_result("CNC(=C[N+](=O)[O-])NCCSCc1ccc(CN(C)C)o1")
74.2
>>> observed_result("CN/C(=N/CCSCc1nc[nH]c1C)NC#N")
83
>>> observed_result("COC(=O)C1=C(C)NC(C)=C(C(=O)OC)C1c1ccccc1[N+](=O)[O-]")
84.2

----------
Readings of KIDNEY_TOTAL for the listed molecules
Organism: Rattus norvegicus
Test: Open TG-GATES - Regimen: Single
Assay type: toxicity, organism-based, Sprague-Dawley
Design: regimen Single, gender Male, age 6 weeks
Conditions: in vivo, po, 300 mg/kg, 24 h, tissue Kidney, route gavage, dose level Middle
metric-name: KIDNEY_TOTAL (g)

>>> observed_result("Cc1nnc2n1-c1ccc(Cl)cc1C(c1ccccc1Cl)=NC2 [TRIAZOLAM]")
1.8
>>> observed_result("O=C(OC[C@H]1O[C@@H](OC(=O)c2cc(O)c(O)c(OC(=O)c3cc(O)c(O)c(O)c3)c2)[C@H](OC(=O)c2cc(O)c(O)c(OC(=O)c3cc(O)c(O)c(O)c3)c2)[C@@H](OC(=O)c2cc(O)c(O)c(OC(=O)c3cc(O)c(O)c(O)c3)c2)[C@@H]1OC(=O)c1cc(O)c(O)c(OC(=O)c2cc(O)c(O)c(O)c2)c1)c1cc(O)c(O)c(OC(=O)c2cc(O)c(O)c(O)c2)c1 [TANNIC ACID]")
1.8
>>> observed_result("CN/C(=N/CCSCc1nc[nH]c1C)NC#N [CIMETIDINE]")
2
>>> observed_result("CNC(=C[N+](=O)[O-])NCCSCc1ccc(CN(C)C)o1 [RANITIDINE]")
2
>>> observed_result("COC(=O)C1=C(C)NC(C)=C(C(=O)OC)C1c1ccccc1[N+](=O)[O-] [NIFEDIPINE]")
1.7

----------
Entries annotated with measured RALB
Species on record: Rattus norvegicus
Assay: Open TG-GATES - Regimen: Daily Repeat
Format: toxicity, organism-based, Sprague-Dawley
Parameters: regimen Daily Repeat, gender Male, age 6 weeks
Details: in vivo, po, 100 mg/kg, […], tissue Plasma, route gavage, dose level Low, time 14 day
metric-name: RALB (g/dL)

>>> observed_result("CNC(=C[N+](=O)[O-])NCCSCc1ccc(CN(C)C)o1 [RANITIDINE]")
3.5
>>> observed_result("Cc1nnc2n1-c1ccc(Cl)cc1C(c1ccccc1Cl)=NC2 [TRIAZOLAM]")
2.7
>>> observed_result("COC(=O)C1=C(C)NC(C)=C(C(=O)OC)C1c1ccccc1[N+](=O)[O-] [NIFEDIPINE]")
2.7
>>> observed_result("CN/C(=N/CCSCc1nc[nH]c1C)NC#N [CIMETIDINE]")
3.4
>>> observed_result("CCOc1ccc(NC(C)=O)cc1 [PHENACETIN]")
2.7
>>> observed_result("O=C(OC[C@H]1O[C@@H](OC(=O)c2cc(O)c(O)c(OC(=O)c3cc(O)c(O)c(O)c3)c2)[C@H](OC(=O)c2cc(O)c(O)c(OC(=O)c3cc(O)c(O)c(O)c3)c2)[C@@H](OC(=O)c2cc(O)c(O)c(OC(=O)c3cc(O)c(O)c(O)c3)c2)[C@@H]1OC(=O)c1cc(O)c(O)c(OC(=O)c2cc(O)c(O)c(O)c2)c1)c1cc(O)c(O)c(OC(=O)c2cc(O)c(O)c(O)c2)c1 [TANNIC ACID]")
3.9
